SUBJECT OF TEST: Sterol O-acyltransferase 1 (Rattus norvegicus, UniProt O70536)
Sequence (O70536 whole entry): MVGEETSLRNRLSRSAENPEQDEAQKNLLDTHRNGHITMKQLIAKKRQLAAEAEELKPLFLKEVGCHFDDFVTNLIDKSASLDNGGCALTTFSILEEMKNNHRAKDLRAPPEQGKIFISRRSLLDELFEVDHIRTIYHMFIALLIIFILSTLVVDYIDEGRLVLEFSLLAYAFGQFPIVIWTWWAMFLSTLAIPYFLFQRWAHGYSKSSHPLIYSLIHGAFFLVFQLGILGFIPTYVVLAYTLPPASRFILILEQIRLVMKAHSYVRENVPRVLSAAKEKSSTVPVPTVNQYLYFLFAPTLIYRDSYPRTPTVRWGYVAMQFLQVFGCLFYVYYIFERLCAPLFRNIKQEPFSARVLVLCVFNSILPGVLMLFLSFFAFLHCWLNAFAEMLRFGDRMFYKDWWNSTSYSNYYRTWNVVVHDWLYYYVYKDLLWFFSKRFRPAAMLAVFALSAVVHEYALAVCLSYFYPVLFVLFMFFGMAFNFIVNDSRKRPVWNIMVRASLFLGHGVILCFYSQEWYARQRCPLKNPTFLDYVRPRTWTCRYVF
PROTOCOL TEXT: In vitro inhibition of acyl coenzyme A:cholesterol acyltransferase (ACAT) in rat hepatic microsomes by using AIV assay.
Design: species or system Liver
TEST CONTEXT: read-out: IC50
ASSAY READOUT: log10(IC50) (log10 of the value in µM)
# log10 transformed; quantity=IC50; unit=µM

CCCCCCN(CCCCCSc1nc2c[nH]cnc-2n1)C(=O)NC(C)C : 1.37

Ask | What log10(IC50) value was documented for this molecule, CCCCCCN(CCOCCSc1nc2c[nH]cnc-2n1)C(=O)NC(C)C ?
Reply | 0.30

Ask | Can you look up the measured log10(IC50) of CCCCCCCN(CCCCCSc1[nH]cnc2ncnc1-2)C(=O)NC(C)C for me?
Reply | 1.47

Ask | Quick one: log10(IC50) for CCCCCCN(CCCCCSc1nc2ccccc2[nH]1)C(=O)Nc1ccc(F)cc1F ?
Reply | -0.30

Ask | Given CCCCCCCN(CCCCCSc1[nH]cnc2nncc1-2)C(=O)Nc1ccc(F)cc1F , state its recorded log10(IC50).
Reply | -0.15

Ask | What log10(IC50) value was documented for this molecule, CCCCCCCN(CCCCCSC1=NC(=O)C(c2ccccc2)(c2ccccc2)N1)C(=O)NC(C)C ?
Reply | 0.45
